System: HSC-3 (Oral Cavity Carcinoma);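 also: after 72 h of two-drug dosing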
assay_text: Bliss excess, mean over the matrix (fraction); higher = more synergy
Recorded Bliss excess by entry

>  <compound>
CN(CCO)CC[C@H](CSc1ccccc1)Nc1ccc(S(=O)(=O)NC(=O)c2ccc(N3CCC([C@@H](O)c4ccccc4-c4ccc(Cl)cc4)CC3)cc2)cc1S(=O)(=O)C(F)(F)F [AZD4320] + CN(C)CCCOc1ccc(-c2ccc3ncc4c(c3c2)n(C2CCOCC2)c(=O)n4C)cn1 [AZD0156] (first compound max 1 µM, 7x7, partner max 1 µM)

>  <Bliss excess>
-0.0532

$$$$
>  <compound>
CC(=O)c1c(C)c2cnc(Nc3ccc(N4CCNCC4)cn3)nc2n(C2CCCC2)c1=O [Palbociclib] + Cc1c2c(nn1C)CSCc1cc(n(C)n1)CSc1cc(c3ccccc3c1)OCCCc1c(C(=O)O)n(C)c3c-2c(Cl)ccc13 [AZD5991] (first compound max 10 µM, 7x7, partner max 1 µM)

>  <Bliss excess>
-0.0811

$$$$
>  <compound>
COc1cccc(OCCCN)c1-c1cc(Nc2cnc(C#N)cn2)n[nH]1 [Prexasertib] + Cc1cc2ncnn2cc1Nc1ncc2c(n1)n(C1CCOCC1)c(=O)n2C [AZD7648] (first compound max 1 µM, 7x7, partner max 10 µM)

>  <Bliss excess>
-0.0096

$$$$
